Hey, just so you know, these numbers are from patent US20260176365A1.

Target: hGP130-his (Sino Biological, Catalog# 10974) (human) (UniProt P40189)
Sequence (P40189 23-619): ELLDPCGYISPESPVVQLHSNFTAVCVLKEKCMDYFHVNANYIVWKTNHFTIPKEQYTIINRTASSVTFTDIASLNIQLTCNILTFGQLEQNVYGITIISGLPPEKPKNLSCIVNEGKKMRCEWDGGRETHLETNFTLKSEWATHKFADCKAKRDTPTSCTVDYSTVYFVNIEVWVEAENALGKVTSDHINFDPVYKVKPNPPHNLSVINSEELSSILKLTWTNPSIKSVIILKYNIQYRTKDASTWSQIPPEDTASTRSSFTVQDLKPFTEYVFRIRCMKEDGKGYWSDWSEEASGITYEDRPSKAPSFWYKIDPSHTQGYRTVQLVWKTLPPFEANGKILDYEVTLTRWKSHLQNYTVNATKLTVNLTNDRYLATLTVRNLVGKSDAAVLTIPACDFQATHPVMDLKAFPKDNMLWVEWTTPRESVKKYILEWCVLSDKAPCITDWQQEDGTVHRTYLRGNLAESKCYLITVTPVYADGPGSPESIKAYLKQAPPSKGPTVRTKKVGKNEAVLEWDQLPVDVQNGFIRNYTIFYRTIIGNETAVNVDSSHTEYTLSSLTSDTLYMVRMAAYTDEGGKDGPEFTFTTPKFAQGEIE
Test: SPR (Biacore T200), Mono-Fc VHH captured on Protein A chip, hGP130-his in solution, 1:1 fit
observable: kon (M⁻¹ s⁻¹)
Unit M⁻¹ s⁻¹ implied. Number only.

Before answering, review these 5 worked examples.
• mgp130_VHH48 Mono-Fc VHH (Fc fusion, not shown: a dimerising Fc or GST) QVQLQESGGALVQPGGSLRLSCAASGFTFSYYAMKWVRQAPGKGLEWVSSISGGGGATYYADSVKGRFTISRDNTNDTLYLQMNSLKTEDTAVYYCAAQNLDYRGQGTQVTVSS = 43000
• mgp130_VHH16 Mono-Fc VHH (Fc fusion, not shown: a dimerising Fc or GST) QVQLQESGGGLVQPGGSLRLSCAASGFTFRNYAMSWVRQAPGKGLEWVSAINSGGGSTYYADSVKGRFTISRDNAKNTLYLQMNSLKPEDTAMYYCAKHVTGDYDPSLRYEYNYWSQGTQVTVSS = 21000
• mgp130_VHH44 Mono-Fc VHH (Fc fusion, not shown: a dimerising Fc or GST) QVQLQESGGGLVQPGGSLRLSCTASGFTFNSAHLKWERQPPGKGLEWVSFITNGGASTGYADSVKGRFTISRDDAKNTLYLQMNNLKTEDTAVYYCATGGLRGQGTQVTVSS = 200000
• mgp130_VHH6 Mono-Fc VHH (Fc fusion, not shown: a dimerising Fc or GST) QVQLQESGGGLVQPGGSLRLSCAASGFTLSTYWMYWVRQAPGKGPEWVSAVSRGGFNTYYADSVKGRFTISRDNAKNTVYLQMNSLKPEDTAVYYCMSSVSFYGWPPDRVPSPTGQGTQVTVSS = 130000
• mgp130_VHH5 Mono-Fc VHH (Fc fusion, not shown: a dimerising Fc or GST) QVQLQESGGGSVQAGGSLRLSCVISGFTYRQTFMGWFRQVVGKEREGVAAISTGGGSTIYADSVKGRFTISQDSSKDTVYLEMNGLKLEDTGMYYCAASTVITSESINRNLYQYWGQGTQVTVSS = 90000

From here, focus on the item given below.
So, mgp130_VHH13 Mono-Fc VHH (Fc fusion, not shown: a dimerising Fc or GST) QVQLQESGGGSVQPGGSLRLSCAASGFTFSTYDMSWVRQAPGKGLEWVSTINYSGSSTYYVDSVLGRFTIARDNAKNTLYLQMNNLQTEDTAVYYCASVKERRSNGHPIVFGDRGQGTQVTVSS ? Its kon was 110000
